target: MAO A (Mus musculus, UniProt Q64133); construct: from tissue; host or cells: whole mouse brain homogenate; assay: MAO A 18F-FEH competition assay in mouse brain homogenate; type: binding; conditions: low MAO A binding, grade; IC50 in mouse brain homogenate; fluorine-19 derivatives
Sequence (Q64133 whole entry): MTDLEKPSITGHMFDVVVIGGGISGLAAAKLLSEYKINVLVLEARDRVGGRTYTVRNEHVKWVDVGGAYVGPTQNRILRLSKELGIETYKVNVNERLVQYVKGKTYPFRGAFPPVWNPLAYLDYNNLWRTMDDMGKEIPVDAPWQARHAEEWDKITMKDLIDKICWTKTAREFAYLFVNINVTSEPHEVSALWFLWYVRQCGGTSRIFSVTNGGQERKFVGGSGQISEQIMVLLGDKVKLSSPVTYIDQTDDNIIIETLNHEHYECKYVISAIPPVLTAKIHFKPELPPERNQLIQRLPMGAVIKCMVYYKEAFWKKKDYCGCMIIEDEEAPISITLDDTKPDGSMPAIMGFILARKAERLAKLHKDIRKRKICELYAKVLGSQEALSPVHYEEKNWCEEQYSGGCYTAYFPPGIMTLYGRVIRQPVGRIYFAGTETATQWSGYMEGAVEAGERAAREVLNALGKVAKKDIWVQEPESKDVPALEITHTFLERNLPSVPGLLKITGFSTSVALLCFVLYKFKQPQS
pIC50: −log10 of the molar value.
readout kind: pIC50

In: Entry Fc1cccnc1-c1ccc2c(n1)[nH]c1ccncc12 : reported pIC50 = ?
Out: < 6.00

----------
target: MAO A (Mus musculus); construct: from tissue; host or cells: whole mouse brain homogenate; assay: MAO A 18F-FEH competition assay in mouse brain homogenate; assay type: binding; conditions: 18F-FEH competition; non-radioactive derivatives; read-out: IC50 MAO A in mouse brain homogenate
IC50 values, listed per item

A selection of reference data follows.
{"compound": "Fc1ccc(-c2ccc3c(n2)[nH]c2ccncc23)cn1", "IC50": "475 nM"}
{"compound": "Fc1ccc(-c2ccc3c(c2)[nH]c2ccncc23)cn1", "IC50": "22 nM"}
{"compound": "[18F]c1ccc(-c2ccc3c(n2)[nH]c2ccncc23)cn1 [^18F-2]", "IC50": "475 nM"}
{"compound": "[18F]c1ccc(-c2ccc3c(c2)[nH]c2ccncc23)cn1 [^18F-1]", "IC50": "22 nM"}
{"compound": "Fc1cc(-c2ccc3c(n2)[nH]c2ccncc23)ccn1", "IC50": "1400 nM"}

In: Suppose we examine the compound [18F]c1cc(-c2ccc3c(n2)[nH]c2ccncc23)ccn1 [^18F-3a] ; what IC50 value has been reported?
Out: 1400 nM

----------
Molecular target: UniProt:P10636
Sequence (P10636 623-708 limits assumed): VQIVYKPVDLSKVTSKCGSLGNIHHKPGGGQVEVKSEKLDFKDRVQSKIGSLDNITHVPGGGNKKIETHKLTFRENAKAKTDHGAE
Experiment: Tau competition binding in human AD brain homogenate with 18F-labeled Tau binder
Details: IC50 determined in AD brain homogenate; compared with 3a
Description: 20 μg of human Alzheimer disease brain homogenate was incubated with a dilution series of each test compound (1000 to 0.06 nM) in the presence of 800 Bq of ^18F-labeled Tau binder. The samples were shaken at 110 rpm for 45 min at 37° C. […] The imaging plate was analyzed after overnight exposition using a Fuji Film BAS-5000. Non-specific signal was determined with samples containing ^18F-labeled Tau-reference binder in the presence of assay buffer without brain substrate and competitor. […]
readout kind: Binding affinity for Tau (in words)

Previously resolved entries follow.
{"sample smiles": "Fc1cccnc1-c1ccc2c(n1)[nH]c1ccncc12", "recorded result": "poor"}
{"sample smiles": "Fc1cccc(-c2ccc3c(n2)[nH]c2ccncc23)n1", "recorded result": "inferior"}
{"sample smiles": "Fc1ccnc(-c2ccc3c(n2)[nH]c2ccncc23)c1", "recorded result": "inferior"}
{"sample smiles": "Fc1cncc(-c2ccc3c(n2)[nH]c2ccncc23)c1", "recorded result": "inferior"}

Now consider a different compound.
In: # lookup: Binding affinity for Tau (in words) of Fc1ccncc1-c1ccc2c(n1)[nH]c1ccncc12
Out: poor

----------
test: PK studies in healthy mice (PET); assay type: in vivo, NMRI mice; settings: bone uptake; 18F tracer; footnote f: no de-fluorination detected

{"compound": "Fc1ccc(-c2ccc3c(n2)[nH]c2ccncc23)cn1 [Example F-2]", "Mouse PK De-fluorination": "(6.2% ID/g)"}
{"compound": "Fc1cccnc1-c1ccc2c(n1)[nH]c1ccncc12 [Example F-10]", "Mouse PK De-fluorination": "(6.2% ID/g)"}

----------
biological target: MAO A (Homo sapiens); construct: 20 μg of human brain homogenate (without AD pathology); test: MAO A FEH competition assay in human HC brain homogenate; conditions: human healthy control brain homogenate; FEH competition
Sequence (P21397 whole entry): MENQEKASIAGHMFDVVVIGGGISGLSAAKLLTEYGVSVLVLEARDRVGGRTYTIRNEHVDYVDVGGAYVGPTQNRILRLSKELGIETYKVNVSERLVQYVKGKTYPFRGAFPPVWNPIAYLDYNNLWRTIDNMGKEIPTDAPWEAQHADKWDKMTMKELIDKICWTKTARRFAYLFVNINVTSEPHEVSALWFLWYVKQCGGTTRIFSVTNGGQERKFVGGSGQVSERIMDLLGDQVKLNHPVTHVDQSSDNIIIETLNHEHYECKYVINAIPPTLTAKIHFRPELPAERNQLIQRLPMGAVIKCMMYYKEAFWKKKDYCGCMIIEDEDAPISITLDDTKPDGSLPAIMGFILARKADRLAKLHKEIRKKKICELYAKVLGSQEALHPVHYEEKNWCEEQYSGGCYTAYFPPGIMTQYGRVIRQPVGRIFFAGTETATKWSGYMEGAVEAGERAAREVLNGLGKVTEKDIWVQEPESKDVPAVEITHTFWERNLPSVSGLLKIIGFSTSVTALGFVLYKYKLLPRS
readout kind: pIC50
Units for pIC50: none; it is -log10 of a concentration expressed in mol/L.

Recorded results for 3 molecules are shown here.
{"molecule": "[18F]c1ccc(-c2ccc3c(c2)[nH]c2ccncc23)cn1 [^18F-1]", "recorded result": 8.30}
{"molecule": "[18F]c1ccc(-c2ccc3c(n2)[nH]c2ccncc23)cn1 [^18F-2]", "recorded result": 7.00}
{"molecule": "Fc1ccc(-c2ccc3c(c2)[nH]c2ccncc23)cn1", "recorded result": 8.30}

In: Data request, read-out pIC50, for [18F]c1cc(-c2ccc3c(n2)[nH]c2ccncc23)ccn1 [^18F-3a]
Out: 5.96

In: Try Fc1ccc(-c2ccc3c(n2)[nH]c2ccncc23)cn1 next.
Out: 7.00

Data origin, for the record: patent US10835624B2
